molecular target: GST-tagged recombinant full-length human PIM-2 (Homo sapiens (Human), UniProt Q9P1W9); assay: PIM-2 Enzyme Assay; settings: read-out: PIM-2 IC50; 4 μM ATP, […] PIM-2
Sequence (Q9P1W9 whole entry): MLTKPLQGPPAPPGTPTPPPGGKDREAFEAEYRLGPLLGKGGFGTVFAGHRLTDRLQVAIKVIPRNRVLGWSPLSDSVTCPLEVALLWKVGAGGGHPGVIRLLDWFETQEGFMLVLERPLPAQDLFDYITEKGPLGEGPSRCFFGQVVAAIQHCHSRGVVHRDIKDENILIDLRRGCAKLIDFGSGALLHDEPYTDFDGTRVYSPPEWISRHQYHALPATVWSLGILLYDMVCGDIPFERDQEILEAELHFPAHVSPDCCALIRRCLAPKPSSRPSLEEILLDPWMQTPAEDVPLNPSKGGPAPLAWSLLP
pIC50: −log10 of the molar value. Counter-ions that a name gives are not always drawn.
recorded.metric: pIC50

compound=NCCCOc1cccc2ccc(-c3nnc4ccccn34)nc12 measured=6.29
compound="CCC1(COc2cccc3ccc(-c4nnc5ccccn45)nc23)CCNCC1 [Example 68, dihydrochloride]" measured=6.90
compound=OC1(COc2cccc3ccc(-c4nnc5ccccn45)nc23)CCNCC1 measured=6.23
compound="CCCC(Oc1cccc2ccc(-c3nnc4ccccn34)nc12)[C@H](CC)CN (stereo partly drawn)" measured=5.87
compound="Fc1ccc2nnc(-c3ccc4cccc(O[C@@H]5CCNCC[C@H]5F)c4n3)n2c1 (relative stereo) [Example 102, dihydrochloride]" measured=6.36
compound=CC(C)(COc1cccc2ccc(-c3nnc4ccccn34)nc12)[C@@H](O)CO measured=6.78
